Data origin: patent US9145392B2

# TESTED ON: His-AKT (Full Length) (Homo sapiens (Human))
# PROCEDURE DETAILS: AKT enzyme assay
# Type: biochemical
# MEASUREMENT CONTEXT: read-out: IC50 AKT
# Description: A TTP Mosquito liquid handling instrument is used to place 125n1 of the appropriate concentration of inhibitor in 100% DMSO (for a dose response curve calculation) into each well of a 384-well plate. […] The plate is read on a Caliper LC 3000 in an Off-Chip mobility shift assay format, using the following parameters for a 12-sipper chip: screening pressure −2.3 psi, upstream voltage −500, and downstream voltage −3000. […]
MEASUREMENT KIND: pIC50
Units for pIC50: none; it is -log10 of a concentration expressed in mol/L.

>>> assay_result("CC(C)Oc1c(N)ncnc1N1CCC(c2nc(-c3ccc(F)c(C(F)(F)F)c3)cn2CC2CNC2)CC1")
8.35
>>> assay_result("Nc1ncnc(N2CCC(c3nc(-c4ccc(F)c(C(F)(F)F)c4)cn3CCN3CCCC3)CC2)c1C(=O)O")
6.14

What the record says about CCN(CC)CCn1cc(-c2ccc(F)c(C)c2)nc1C1CCN(c2ncnc(N)c2OC(C)C)CC1 : pIC50 is 8.59

What the record says about CCc1c(N)ncnc1N1CCC(c2nc(-c3cccc(OC(F)(F)F)c3)cn2CCN2CCC2)CC1 : pIC50 is 7.80

What the record says about NC(=O)c1c(N)ncnc1N1CCC(c2nc(-c3ccc(F)c(Cl)c3)cn2CCN2CCC2)CC1 : pIC50 is 8.12

What the record says about Nc1ncnc(N2CCC(c3nc(-c4ccc(Cl)cc4)cn3CCN3CCCC3)CC2)c1C1CCC1 : pIC50 is 7.10

What the record says about CCc1c(N)ncnc1N1CCC(c2nc(-c3ccc(F)c(F)c3)cn2CCN2CCC3(COC3)C2)CC1 : pIC50 is 7.05

What the record says about CCc1c(N)ncnc1N1CCC(c2nc(-c3ccnc(C)c3)cn2CCN2CCC2)CC1 : pIC50 is 6.97

What the record says about Cn1cc(-c2ccc(F)c(C(F)(F)F)c2)nc1C1CCN(c2ncnc(N)c2-c2ccc(CO)cc2)CC1 : pIC50 is 6.60

====

# pIC50 annotations
# TESTED ON: P70S6K (T412E mutant) (Homo sapiens (Human), UniProt P23443, T412E)
# Sequence (P23443 whole entry T412E): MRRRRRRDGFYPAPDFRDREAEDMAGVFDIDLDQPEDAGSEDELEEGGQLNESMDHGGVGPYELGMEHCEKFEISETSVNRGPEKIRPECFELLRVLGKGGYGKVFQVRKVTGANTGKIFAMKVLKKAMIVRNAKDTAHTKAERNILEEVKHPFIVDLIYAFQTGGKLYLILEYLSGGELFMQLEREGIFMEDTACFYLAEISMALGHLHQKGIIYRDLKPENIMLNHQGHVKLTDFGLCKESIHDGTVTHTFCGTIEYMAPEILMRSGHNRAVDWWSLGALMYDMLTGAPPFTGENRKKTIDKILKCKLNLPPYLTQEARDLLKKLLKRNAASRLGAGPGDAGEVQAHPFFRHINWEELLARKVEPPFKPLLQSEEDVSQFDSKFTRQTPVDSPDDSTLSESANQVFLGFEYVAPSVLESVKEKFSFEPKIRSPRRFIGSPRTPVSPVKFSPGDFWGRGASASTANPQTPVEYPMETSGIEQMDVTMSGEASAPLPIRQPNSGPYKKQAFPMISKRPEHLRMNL
# PROCEDURE DETAILS: P70S6K enzyme assay
# Type: biochemical
# MEASUREMENT CONTEXT: read-out: IC50 p70S6K
Units for pIC50: none; it is -log10 of a concentration expressed in mol/L.

# annotated cases, reported pIC50 shown
>>> assay_result("CCc1c(N)ncnc1N1CCC(c2nc(-c3ccc(F)c(C)c3)cn2CC2CNC2)CC1")
8.68
>>> assay_result("NC(=O)c1c(N)ncnc1N1CCC(c2nc(-c3ccnc(C(F)(F)F)c3)cn2CCN2CCC2)CC1")
8.26

// next entry
What the record says about CCc1c(N)ncnc1N1CCC(c2nc(-c3ccc(F)c(C(F)(F)F)c3)cn2CCN2CC(F)(F)C2)CC1 : pIC50 is 7.89

====

# TESTED ON: His-AKT (Full Length) (Homo sapiens (Human), UniProt P31749)
# Sequence (P31749 whole entry): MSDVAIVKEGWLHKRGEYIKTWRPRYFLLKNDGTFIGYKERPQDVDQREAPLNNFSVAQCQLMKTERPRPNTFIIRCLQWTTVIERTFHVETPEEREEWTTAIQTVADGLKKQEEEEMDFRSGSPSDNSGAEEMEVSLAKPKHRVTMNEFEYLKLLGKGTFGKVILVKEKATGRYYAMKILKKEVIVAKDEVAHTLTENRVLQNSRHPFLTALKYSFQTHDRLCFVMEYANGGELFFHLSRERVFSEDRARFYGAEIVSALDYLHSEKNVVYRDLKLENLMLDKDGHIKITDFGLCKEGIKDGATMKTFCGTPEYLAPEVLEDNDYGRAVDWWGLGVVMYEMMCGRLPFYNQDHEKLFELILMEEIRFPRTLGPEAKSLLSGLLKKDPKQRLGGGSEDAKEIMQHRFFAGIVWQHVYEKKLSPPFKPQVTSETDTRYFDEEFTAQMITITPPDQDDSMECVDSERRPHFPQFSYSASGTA
# PROCEDURE DETAILS: AKT enzyme assay
# Assay type: biochemical
# MEASUREMENT CONTEXT: read-out: IC50 AKT
# Excerpt: A TTP Mosquito liquid handling instrument is used to place 125n1 of the appropriate concentration of inhibitor in 100% DMSO (for a dose response curve calculation) into each well of a 384-well plate. […] The plate is read on a Caliper LC 3000 in an Off-Chip mobility shift assay format, using the following parameters for a 12-sipper chip: screening pressure −2.3 psi, upstream voltage −500, and downstream voltage −3000. […]
# pIC50 annotations
Units for pIC50: none; it is -log10 of a concentration expressed in mol/L.

>>> assay_result("CCc1c(N)ncnc1N1CCC(c2nc(-c3ccc(OC)c(C(N)=O)c3)cn2CCN2CCC2)CC1")
6.80
>>> assay_result("CNCCn1cc(-c2ccnc(C(F)(F)F)c2)nc1C1CCN(c2ncnc(N)c2C#N)CC1")
8.77
>>> assay_result("CC(C)NCCn1cc(-c2ccc(F)c(C(F)(F)F)c2)nc1C1CCN(c2ncnc(N)c2C(N)=O)CC1")
8.60

What the record says about CCOc1c(N)ncnc1N1CCC(c2nc(-c3ccc(F)c(C)c3)cn2CCN(CC)CC)CC1 : pIC50 is 9.10
